The values you see were collected from paper PMC9727064.

Tested on: human Liver-Chip (hepatocyte layer)
Assay: Liver-Chip immunofluorescence imaging (caspase 3/7, TMRM, AdipoRed/LipidTOX)
Type: cell-based
Conditions: matched pair analysis; donor 2

molecule	study-target	IF imaging Donor 2
Cc1cc2c(s1)Nc1ccccc1N=C2N1CCN(C)CC1	human Liver-Chip (hepatocyte layer)	No findings
Cc1c(C)c2c(c(C)c1O)CCC(C)(COc1ccc(CC3SC(=O)NC3=O)cc1)O2 (stereo not shown)	human Liver-Chip (hepatocyte layer)	Apoptosis
COC(c1ccccc1)(c1ccccc1)[C@H](Oc1nc(C)cc(C)n1)C(=O)O	human Liver-Chip (hepatocyte layer)	No findings
O=c1[nH]c(=O)n([C@@H]2O[C@H](CO)[C@@H](O)[C@@H]2F)cc1I [Fialuridine]	human Liver-Chip (hepatocyte layer)	Steatosis
C[C@H]1COc2c(N3CCN(C)CC3)c(F)cc3c(=O)c(C(=O)O)cn1c23	human Liver-Chip (hepatocyte layer)	No findings
CCc1ccc(CCOc2ccc(CC3SC(=O)NC3=O)cc2)nc1 (stereo not shown)	human Liver-Chip (hepatocyte layer)	No findings
N[C@@H]1[C@H]2CN(c3nc4c(cc3F)c(=O)c(C(=O)O)cn4-c3ccc(F)cc3F)C[C@@H]12	human Liver-Chip (hepatocyte layer)	Apoptosis
Cc1ccc(C(=O)c2cc(O)c(O)c([N+](=O)[O-])c2)cc1	human Liver-Chip (hepatocyte layer)	Mitotoxicity
Cc1cc2c(cc1CC(=O)c1sccc1S(=O)(=O)Nc1onc(C)c1Cl)OCO2	human Liver-Chip (hepatocyte layer)	Mitotoxicity
O=c1[nH]c(=O)n([C@@H]2O[C@H](CO)[C@@H](O)[C@@H]2F)cc1I [FIRU]	human Liver-Chip (hepatocyte layer)	Steatosis

###

System: human Liver-Chip (hepatocyte layer)
Assay: Liver-Chip immunofluorescence imaging (caspase 3/7, TMRM, AdipoRed/LipidTOX)
Type: cell-based
Conditions: matched pair analysis; donor 1

compound	IF imaging Donor 1
C[C@H]1COc2c(N3CCN(C)CC3)c(F)cc3c(=O)c(C(=O)O)cn1c23	No findings
O=C1CC2(CCCC2)CC(=O)N1CCCCN1CCN(c2ncccn2)CC1	Apoptosis
CCN(CC)C(=O)/C(C#N)=C/c1cc(O)c(O)c([N+](=O)[O-])c1	No findings
N[C@@H]1[C@H]2CN(c3nc4c(cc3F)c(=O)c(C(=O)O)cn4-c3ccc(F)cc3F)C[C@@H]12	Apoptosis
O=c1[nH]c(=O)n([C@@H]2O[C@H](CO)[C@@H](O)[C@@H]2F)cc1I [FIRU]	No findings
COC(c1ccccc1)(c1ccccc1)[C@H](Oc1nc(C)cc(C)n1)C(=O)O	No findings
CCc1ccc(CCOc2ccc(CC3SC(=O)NC3=O)cc2)nc1 (stereo not drawn)	Apoptosis
Cc1cc2c(s1)Nc1ccccc1N=C2N1CCN(C)CC1	Apoptosis

###

Tested on: human Liver-Chip
Experiment: Liver-Chip DILI prediction: minimum toxic concentration and margin of safety (MOS)-like figure;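 also: Toxic concentration is the lowest across albumin IC50 and ALT and morphology endpoints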
Conditions: free IC50 concentration in the assay divided by total concentration of drug in human plasma at Cmax; donor 1

compound	study-target	bound-type	Chip MOS donor 1
CC(c1cc2ccccc2s1)N(O)C(N)=O (centres unmarked)	human Liver-Chip	>	7
O=c1[nH]c(=O)n([C@@H]2O[C@H](CO)[C@@H](O)[C@@H]2F)cc1I [Fialuridine]	human Liver-Chip	=	0.1
O=C(O)Cc1ccccc1Nc1c(Cl)cccc1Cl	human Liver-Chip	=	1.8
O=c1[nH]c(=O)n([C@@H]2O[C@H](CO)[C@@H](O)[C@@H]2F)cc1I [FIRU]	human Liver-Chip	>	108
O=C(NC1CCN(CCCCC2(C(=O)NCC(F)(F)F)c3ccccc3-c3ccccc32)CC1)c1ccccc1-c1ccc(C(F)(F)F)cc1 [Lomitapide]	human Liver-Chip	=	0
